# Target or system: human ether-à-go-go-related gene (hERG) potassium channel (human);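 further: peak tail current of the secondary pulse compared with the same well before compound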
# Sequence (Q12809 whole entry, looked up): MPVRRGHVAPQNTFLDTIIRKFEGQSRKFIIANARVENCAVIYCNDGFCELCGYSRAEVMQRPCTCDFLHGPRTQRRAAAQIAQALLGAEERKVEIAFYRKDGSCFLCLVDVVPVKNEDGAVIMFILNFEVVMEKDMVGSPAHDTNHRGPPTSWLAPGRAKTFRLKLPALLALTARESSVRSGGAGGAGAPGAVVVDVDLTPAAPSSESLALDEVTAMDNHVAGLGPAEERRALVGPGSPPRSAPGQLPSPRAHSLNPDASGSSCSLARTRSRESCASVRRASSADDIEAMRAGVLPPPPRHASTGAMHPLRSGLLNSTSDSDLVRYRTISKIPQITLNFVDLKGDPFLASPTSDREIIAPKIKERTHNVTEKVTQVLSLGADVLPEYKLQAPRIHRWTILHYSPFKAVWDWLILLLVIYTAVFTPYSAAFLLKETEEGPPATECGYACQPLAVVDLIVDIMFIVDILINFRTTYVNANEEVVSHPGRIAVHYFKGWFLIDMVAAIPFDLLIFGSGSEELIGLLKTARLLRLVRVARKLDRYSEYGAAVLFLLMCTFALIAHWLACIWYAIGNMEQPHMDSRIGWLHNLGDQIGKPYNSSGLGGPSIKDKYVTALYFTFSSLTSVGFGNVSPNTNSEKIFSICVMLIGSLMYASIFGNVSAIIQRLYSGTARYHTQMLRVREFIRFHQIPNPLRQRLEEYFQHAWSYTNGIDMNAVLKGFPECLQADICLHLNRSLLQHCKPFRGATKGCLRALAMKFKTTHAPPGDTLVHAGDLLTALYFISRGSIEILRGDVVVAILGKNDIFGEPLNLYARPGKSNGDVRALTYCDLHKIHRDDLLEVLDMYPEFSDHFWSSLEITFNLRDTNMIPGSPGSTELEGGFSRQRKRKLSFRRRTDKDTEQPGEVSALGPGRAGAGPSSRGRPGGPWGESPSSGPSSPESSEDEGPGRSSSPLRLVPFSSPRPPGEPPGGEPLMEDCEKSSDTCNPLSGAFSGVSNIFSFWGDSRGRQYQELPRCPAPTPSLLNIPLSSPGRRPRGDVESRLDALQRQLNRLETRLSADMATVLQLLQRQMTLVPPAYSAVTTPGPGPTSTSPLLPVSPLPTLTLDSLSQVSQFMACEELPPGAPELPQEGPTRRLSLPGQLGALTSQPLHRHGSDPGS
# Assay explanation: primary screen, population patch clamp on CHO cells stably expressing hERG; higher = less effect of the substance
In all, about 310,000 compounds went through this assay and about 14,000 (4.5%) showed an effect of 50% or more. The effect is printed as a negative number. The entries come from a sample that favours strong results as a whole.
So I've got a bunch of molecules here, and I need their hERG current change (%, negative = inhibition) at 10uM values.
Numbers only, in %.

Some molecules with recorded hERG current change (%, negative = inhibition) at 10uM:
Molecule	Measured
CCc1nn(CC(=O)NCCCN(Cc2ccccc2)C(C)C)c(=O)c2cc3sccc3n12	-43.8
CCc1nn(CC(=O)NCCCN2CCc3ccccc3C2)c(=O)c2cc3sccc3n12	-70.2
CC1(C)CC(=O)c2sc(N3CCCCC3)nc2C1	-2.83
CCCCN(CCCNC(=O)Cn1nc(CC)n2c(cc3sc(C)cc32)c1=O)Cc1ccccc1	-47.1
CCc1ccc2c(CN(C)Cc3ccc(OC(F)F)c(OC)c3)cc(=O)oc2c1	-72.5

Please state, for each entry, its recorded hERG current change (%, negative = inhibition) at 10uM.
1. COc1ccc(C(=O)Nc2ccc(N3CCCCCC3)cc2)cc1S(=O)(=O)N1CCOCC1
2. COc1cc(CN(C)Cc2cc(=O)oc3cc(C)c(Cl)cc23)ccc1OC(F)F
3. COc1ccc(CN(C2CCCC2)S(=O)(=O)c2ccc(-n3cnnn3)c(OC)c2)cc1OC
4. COc1cc(/C=N/NC(=S)NCCc2ccccc2)cc(OC)c1OC
5. Cc1onc(-c2ccccc2Cl)c1C(=O)Nc1ccc(S(=O)(=O)NCC2CCCO2)cc1 (stereo not drawn)

A)
[-40.1, 12, -28.1, 8.26, -10.5]
